The measured values listed here are drawn from PubChem BioAssay (NCI).

# Test system: K-562 leukemia
# Method description: NCI-60 one-dose screen, 48 h
# Condition parameters: 10 µM unless noted
Compounds without any hit were thinned out: in the full panel of roughly 83,000, 20% have a hit. Activity calls are given as the source filed them. The calls were made as follows: active = growth percent below 10; inactive = the rest.
Outcomes: yes (1) for active, no (0) for inactive

[[record]]
molecule = "CCOC(=O)C1=C(C)Nc2nnc(Nc3ccccc3)n2C1c1ccccc1 (centres undefined)"
group_label = "no (0)"

[[record]]
molecule = "COc1cc(C(=O)c2cc(C(C)=O)c3c4ccccc4ccn23)cc(OC)c1OC"
group_label = "no (0)"

[[record]]
molecule = "Cc1cc(F)cc(NS(=O)(=O)c2ccc(-c3cnc(C4CC4)o3)cc2)c1"
group_label = "yes (1)"

[[record]]
molecule = "COc1ccc(-c2ccc3c4c(cccc24)C(=O)N(N2C(=O)c4cccc5cccc(c45)C2=O)C3=O)cc1"
group_label = "no (0)"

[[record]]
molecule = "CCOC(=O)c1c(NCC(=O)Nc2cccc(Cl)c2)sc2c1CCCC2"
group_label = "no (0)"

[[record]]
molecule = "Oc1ccc(CSc2nnc(-c3ccc(Br)cc3)o2)c2cccnc12"
group_label = "no (0)"

[[record]]
molecule = "COc1ccc(C2C(C#N)=C(N)Oc3c2sc2ccc(C)cc32)cc1 (centres undefined)"
group_label = "no (0)"

[[record]]
molecule = "CC(C)(C)CC(C)(C)n1nnnc1C(Nc1ccccc1)c1cc2cccc3ccc4cccc1c4c32 (centres undefined)"
group_label = "no (0)"

[[record]]
molecule = "CC1(C)CC[C@]2(C(=O)O)CC[C@]3(C)C(=CCC4[C@@]5(C)C[C@@H](O)[C@@H]6OC(c7cccc([N+](=O)[O-])c7)OC[C@@]6(C)C5CC[C@]43C)C2C1 (some centres undefined)"
group_label = "no (0)"

